# Tested on: 292921-168-R-J2-PDC KRAS tumor spheroid viability
# Experimental Details: Anticancer human tumor 292921-168-R-J2-PDC patient-derived pancreatic carcinoma cell line growth inhibition [KRAS2]; active means viability on the fitted dose curve at most 10% of control; inactive means the rest
# Test Settings: second compound 10 µM; first compound 0.01 µM; spheroids with HUVEC and MSC
Classes to choose from: active, inactive

Query: recorded result category for CC(=O)Nc1cccc(-n2c(=O)n(C3CC3)c(=O)c3c(Nc4ccc(I)cc4F)n(C)c(=O)c(C)c32)c1 + CNCc1ccccc1-c1csc(C(C)Nc2nc(C)nc3cc(OC)c(OC)cc23)c1 in this test
active

Query: recorded result category for CC(C)n1nc(-c2ccc3oc(N)nc3c2)c2c(N)ncnc21 + C=CC(=O)N1CCN(c2nc(=O)n(-c3c(C)ccnc3C(C)C)c3nc(-c4c(O)cccc4F)c(F)cc23)C(C)C1 in this test
inactive

Query: recorded result category for CC(=O)Nc1cccc(-n2c(=O)n(C3CC3)c(=O)c3c(Nc4ccc(I)cc4F)n(C)c(=O)c(C)c32)c1 + CC1OCC2(CCN(c3cnc(Sc4ccnc(N)c4Cl)c(N)n3)CC2)C1N in this test
active

Query: recorded result category for CN(C)C/C=C/C(=O)Nc1cc2c(Nc3ccc(F)c(Cl)c3)ncnc2cc1O[C@H]1CCOC1 + CNCc1ccccc1-c1csc(C(C)Nc2nc(C)nc3cc(OC)c(OC)cc23)c1 in this test
active

Query: recorded result category for CC(=O)OC12COC1CC(O)C1(C)C(=O)C(O)C3=C(C)C(OC(=O)C(O)C(NC(=O)OC(C)(C)C)c4ccccc4)CC(O)(C(OC(=O)c4ccccc4)C21)C3(C)C (stereo not given) + COc1cc2nc(C)nc(NC(C)c3cc(N)cc(C(F)(F)F)c3)c2cc1OC1CCOC1 in this test
inactive

###

# Tested on: 292921-168-R-J2-PDC KRAS tumor spheroid viability
# Experimental Details: Anticancer human tumor 292921-168-R-J2-PDC cell line growth inhibition [KRAS2];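 further: drug exposure lasted seven days after spheroids formed for three days; percent of DMSO vehicle control viability which is 100%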
# Test Settings: second compound 1 µM; first compound 0.00316 µM; hits give low values; spheroids with HUVEC and MSC
Reported Property: viability, T/C (%)
Just the number please, in %, no unit attached.

So what's the measured viability, T/C for this one? Cn1ncnc1[C@H]1c2n[nH]c(=O)c3cc(F)cc(c23)N[C@@H]1c1ccc(F)cc1 + CC1OCC2(CCN(c3cnc(Sc4ccnc(N)c4Cl)c(N)n3)CC2)C1N
49.2

So what's the measured viability, T/C for this one? CC(=O)Nc1cccc(-n2c(=O)n(C3CC3)c(=O)c3c(Nc4ccc(I)cc4F)n(C)c(=O)c(C)c32)c1 + C=CC(=O)N1CCN(c2nc(OCC3CCCN3C)nc3c2CCN(c2cccc4cccc(C)c24)C3)CC1CC#N
9.17

So what's the measured viability, T/C for this one? Cn1ncnc1[C@H]1c2n[nH]c(=O)c3cc(F)cc(c23)N[C@@H]1c1ccc(F)cc1 + CNCc1ccccc1-c1csc(C(C)Nc2nc(C)nc3cc(OC)c(OC)cc23)c1
57.6

So what's the measured viability, T/C for this one? CCN1CCN(Cc2ccc(Nc3ncc(F)c(-c4cc(F)c5nc(C)n(C(C)C)c5c4)n3)nc2)CC1 + C=CC(=O)N1CCN(c2nc(=O)n(-c3c(C)ccnc3C(C)C)c3nc(-c4c(O)cccc4F)c(F)cc23)C(C)C1
96.8

So what's the measured viability, T/C for this one? CC(C)n1nc(-c2ccc3oc(N)nc3c2)c2c(N)ncnc21 + CNCc1ccccc1-c1csc(C(C)Nc2nc(C)nc3cc(OC)c(OC)cc23)c1
33.6

So what's the measured viability, T/C for this one? CN(C)C/C=C/C(=O)Nc1cc2c(Nc3ccc(F)c(Cl)c3)ncnc2cc1O[C@H]1CCOC1 + C=CC(=O)N1CCN(c2nc(=O)n(-c3c(C)ccnc3C(C)C)c3nc(-c4c(O)cccc4F)c(F)cc23)C(C)C1
106

So what's the measured viability, T/C for this one? CC(C)n1nc(-c2ccc3oc(N)nc3c2)c2c(N)ncnc21 + C=CC(=O)N1CCN(c2nc(OCC3CCCN3C)nc3c2CCN(c2cccc4cccc(C)c24)C3)CC1CC#N
23.8

So what's the measured viability, T/C for this one? CC(=O)Nc1cccc(-n2c(=O)n(C3CC3)c(=O)c3c(Nc4ccc(I)cc4F)n(C)c(=O)c(C)c32)c1 + C=CC(=O)N1CCN(c2nc(=O)n(-c3c(C)ccnc3C(C)C)c3nc(-c4c(O)cccc4F)c(F)cc23)C(C)C1
19.6

So what's the measured viability, T/C for this one? CC(C)n1nc(-c2ccc3oc(N)nc3c2)c2c(N)ncnc21 + COc1cc2nc(C)nc(NC(C)c3cc(N)cc(C(F)(F)F)c3)c2cc1OC1CCOC1
47

So what's the measured viability, T/C for this one? CN(C)C/C=C/C(=O)Nc1cc2c(Nc3ccc(F)c(Cl)c3)ncnc2cc1O[C@H]1CCOC1 + CC1OCC2(CCN(c3cnc(Sc4ccnc(N)c4Cl)c(N)n3)CC2)C1N
94

So what's the measured viability, T/C for this one? Cn1ncnc1[C@H]1c2n[nH]c(=O)c3cc(F)cc(c23)N[C@@H]1c1ccc(F)cc1 + C=CC(=O)N1CCN(c2nc(OCC3CCCN3C)nc3c2CCN(c2cccc4cccc(C)c24)C3)CC1CC#N
37.1

So what's the measured viability, T/C for this one? CN(C)C/C=C/C(=O)Nc1cc2c(Nc3ccc(F)c(Cl)c3)ncnc2cc1O[C@H]1CCOC1 + CNCc1ccccc1-c1csc(C(C)Nc2nc(C)nc3cc(OC)c(OC)cc23)c1
60

So what's the measured viability, T/C for this one? Cn1ncnc1[C@H]1c2n[nH]c(=O)c3cc(F)cc(c23)N[C@@H]1c1ccc(F)cc1 + C=CC(=O)N1CCN(c2nc(=O)n(-c3c(C)ccnc3C(C)C)c3nc(-c4c(O)cccc4F)c(F)cc23)C(C)C1
94.9

So what's the measured viability, T/C for this one? CCN1CCN(Cc2ccc(Nc3ncc(F)c(-c4cc(F)c5nc(C)n(C(C)C)c5c4)n3)nc2)CC1 + CNCc1ccccc1-c1csc(C(C)Nc2nc(C)nc3cc(OC)c(OC)cc23)c1
54.3

So what's the measured viability, T/C for this one? CN(C)C/C=C/C(=O)Nc1cc2c(Nc3ccc(F)c(Cl)c3)ncnc2cc1O[C@H]1CCOC1 + COc1cc2nc(C)nc(NC(C)c3cc(N)cc(C(F)(F)F)c3)c2cc1OC1CCOC1
83.7

So what's the measured viability, T/C for this one? CC(=O)Nc1cccc(-n2c(=O)n(C3CC3)c(=O)c3c(Nc4ccc(I)cc4F)n(C)c(=O)c(C)c32)c1 + CNCc1ccccc1-c1csc(C(C)Nc2nc(C)nc3cc(OC)c(OC)cc23)c1
13.7

So what's the measured viability, T/C for this one? CN(C)C/C=C/C(=O)Nc1cc2c(Nc3ccc(F)c(Cl)c3)ncnc2cc1O[C@H]1CCOC1 + C=CC(=O)N1CCN(c2nc(OCC3CCCN3C)nc3c2CCN(c2cccc4cccc(C)c24)C3)CC1CC#N
50.3

So what's the measured viability, T/C for this one? CCN1CCN(Cc2ccc(Nc3ncc(F)c(-c4cc(F)c5nc(C)n(C(C)C)c5c4)n3)nc2)CC1 + COc1cc2nc(C)nc(NC(C)c3cc(N)cc(C(F)(F)F)c3)c2cc1OC1CCOC1
60.7

So what's the measured viability, T/C for this one? CC(C)n1nc(-c2ccc3oc(N)nc3c2)c2c(N)ncnc21 + C=CC(=O)N1CCN(c2nc(=O)n(-c3c(C)ccnc3C(C)C)c3nc(-c4c(O)cccc4F)c(F)cc23)C(C)C1
77.1

So what's the measured viability, T/C for this one? CC(=O)Nc1cccc(-n2c(=O)n(C3CC3)c(=O)c3c(Nc4ccc(I)cc4F)n(C)c(=O)c(C)c32)c1 + CC1OCC2(CCN(c3cnc(Sc4ccnc(N)c4Cl)c(N)n3)CC2)C1N
9.44

###

Please go through the items and note down their viability, T/C.
# System: 292921-168-R-J2-PDC KRAS tumor spheroid viability
# Experimental Details: Anticancer human tumor 292921-168-R-J2-PDC cell line growth inhibition [KRAS2];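 further: drug exposure lasted seven days after spheroids formed for three days; percent of DMSO vehicle control viability which is 100%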
# Test Settings: second compound 0.316 µM; first compound 0.316 µM; hits give low values; spheroids with HUVEC and MSC

So what's the measured viability, T/C for this one? CC1OCC2(CCN(c3cnc(Sc4ccnc(N)c4Cl)c(N)n3)CC2)C1N (centres undefined) + COc1cc2nc(C)nc(NC(C)c3cc(N)cc(C(F)(F)F)c3)c2cc1OC1CCOC1
39.9%

So what's the measured viability, T/C for this one? Cn1nccc1Nc1nccc(-c2cc3c(s2)C(C)(C)N(CCN2CCOCC2)C3=O)n1 + CNCc1ccccc1-c1csc(C(C)Nc2nc(C)nc3cc(OC)c(OC)cc23)c1
18.6%

So what's the measured viability, T/C for this one? CC1(C)CCC(CN2CCN(c3ccc(C(=O)NS(=O)(=O)c4ccc(NCC5CCOCC5)c([N+](=O)[O-])c4)c(Oc4cnc5[nH]ccc5c4)c3)CC2)=C(c2ccc(Cl)cc2)C1 + COc1cc2nc(C)nc(NC(C)c3cc(N)cc(C(F)(F)F)c3)c2cc1OC1CCOC1
88.9%

So what's the measured viability, T/C for this one? COc1cc(Nc2ncc3c(n2)-c2ccc(Cl)cc2C(c2c(F)cccc2OC)=NC3)ccc1C(=O)O + C=CC(=O)N1CCN(c2nc(OCC3CCCN3C)nc3c2CCN(c2cccc4cccc(C)c24)C3)CC1CC#N
23.5%

So what's the measured viability, T/C for this one? CC(C)NCC(C(=O)N1CCN(c2ncnc3c2C(C)CC3O)CC1)c1ccc(Cl)cc1 (centres undefined) + C=CC(=O)N1CCN(c2nc(=O)n(-c3c(C)ccnc3C(C)C)c3nc(-c4c(O)cccc4F)c(F)cc23)C(C)C1
85.7%

So what's the measured viability, T/C for this one? CC1(C)CCC(CN2CCN(c3ccc(C(=O)NS(=O)(=O)c4ccc(NCC5CCOCC5)c([N+](=O)[O-])c4)c(Oc4cnc5[nH]ccc5c4)c3)CC2)=C(c2ccc(Cl)cc2)C1 + C=CC(=O)N1CCN(c2nc(=O)n(-c3c(C)ccnc3C(C)C)c3nc(-c4c(O)cccc4F)c(F)cc23)C(C)C1
94.3%

So what's the measured viability, T/C for this one? CC1OCC2(CCN(c3cnc(Sc4ccnc(N)c4Cl)c(N)n3)CC2)C1N (centres undefined) + C=CC(=O)N1CCN(c2nc(=O)n(-c3c(C)ccnc3C(C)C)c3nc(-c4c(O)cccc4F)c(F)cc23)C(C)C1
69.2%

So what's the measured viability, T/C for this one? Cn1nccc1Nc1nccc(-c2cc3c(s2)C(C)(C)N(CCN2CCOCC2)C3=O)n1 + C=CC(=O)N1CCN(c2nc(OCC3CCCN3C)nc3c2CCN(c2cccc4cccc(C)c24)C3)CC1CC#N
16.2%

So what's the measured viability, T/C for this one? CC(=O)OC12COC1CC(O)C1(C)C(=O)C(O)C3=C(C)C(OC(=O)C(O)C(NC(=O)OC(C)(C)C)c4ccccc4)CC(O)(C(OC(=O)c4ccccc4)C21)C3(C)C (centres undefined) + C=CC(=O)N1CCN(c2nc(OCC3CCCN3C)nc3c2CCN(c2cccc4cccc(C)c24)C3)CC1CC#N
9.75%

So what's the measured viability, T/C for this one? CC1COCCN1c1cc(-c2ccnn2C)c2ccnc(-c3ccn[nH]3)c2n1 (centres undefined) + C=CC(=O)N1CCN(c2nc(OCC3CCCN3C)nc3c2CCN(c2cccc4cccc(C)c24)C3)CC1CC#N
8.07%

So what's the measured viability, T/C for this one? CC(=O)OC12COC1CC(O)C1(C)C(=O)C(O)C3=C(C)C(OC(=O)C(O)C(NC(=O)OC(C)(C)C)c4ccccc4)CC(O)(C(OC(=O)c4ccccc4)C21)C3(C)C (centres undefined) + COc1cc2nc(C)nc(NC(C)c3cc(N)cc(C(F)(F)F)c3)c2cc1OC1CCOC1
12.6%

So what's the measured viability, T/C for this one? CC(C)NCC(C(=O)N1CCN(c2ncnc3c2C(C)CC3O)CC1)c1ccc(Cl)cc1 (centres undefined) + COc1cc2nc(C)nc(NC(C)c3cc(N)cc(C(F)(F)F)c3)c2cc1OC1CCOC1
80.5%

So what's the measured viability, T/C for this one? CC(C)NCC(C(=O)N1CCN(c2ncnc3c2C(C)CC3O)CC1)c1ccc(Cl)cc1 (centres undefined) + CC1OCC2(CCN(c3cnc(Sc4ccnc(N)c4Cl)c(N)n3)CC2)C1N
56.8%

So what's the measured viability, T/C for this one? CCN1CCN(Cc2ccc(Nc3ncc(F)c(-c4cc(F)c5nc(C)n(C(C)C)c5c4)n3)nc2)CC1 + CNCc1ccccc1-c1csc(C(C)Nc2nc(C)nc3cc(OC)c(OC)cc23)c1
23.6%

So what's the measured viability, T/C for this one? O=C(c1cc(Cc2n[nH]c(=O)c3ccccc23)ccc1F)N1CCN(C(=O)C2CC2)CC1 + C=CC(=O)N1CCN(c2nc(=O)n(-c3c(C)ccnc3C(C)C)c3nc(-c4c(O)cccc4F)c(F)cc23)C(C)C1
79.4%

So what's the measured viability, T/C for this one? CC1(C)CCC(CN2CCN(c3ccc(C(=O)NS(=O)(=O)c4ccc(NCC5CCOCC5)c([N+](=O)[O-])c4)c(Oc4cnc5[nH]ccc5c4)c3)CC2)=C(c2ccc(Cl)cc2)C1 + CC1OCC2(CCN(c3cnc(Sc4ccnc(N)c4Cl)c(N)n3)CC2)C1N
64.2%

So what's the measured viability, T/C for this one? COc1cc(Nc2ncc3c(n2)-c2ccc(Cl)cc2C(c2c(F)cccc2OC)=NC3)ccc1C(=O)O + C=CC(=O)N1CCN(c2nc(=O)n(-c3c(C)ccnc3C(C)C)c3nc(-c4c(O)cccc4F)c(F)cc23)C(C)C1
37.4%

So what's the measured viability, T/C for this one? CCNC(=O)CC1N=C(c2ccc(Cl)cc2)c2cc(OC)ccc2-n2c(C)nnc21 (centres undefined) + CC1OCC2(CCN(c3cnc(Sc4ccnc(N)c4Cl)c(N)n3)CC2)C1N
31.4%

So what's the measured viability, T/C for this one? O=C(c1cc(Cc2n[nH]c(=O)c3ccccc23)ccc1F)N1CCN(C(=O)C2CC2)CC1 + CNCc1ccccc1-c1csc(C(C)Nc2nc(C)nc3cc(OC)c(OC)cc23)c1
76.8%
